MEASUREMENT TARGET: T1, human GLP-2 receptor (human, UniProt O95838 1-553, limits assumed)
T1 sequence (looked up): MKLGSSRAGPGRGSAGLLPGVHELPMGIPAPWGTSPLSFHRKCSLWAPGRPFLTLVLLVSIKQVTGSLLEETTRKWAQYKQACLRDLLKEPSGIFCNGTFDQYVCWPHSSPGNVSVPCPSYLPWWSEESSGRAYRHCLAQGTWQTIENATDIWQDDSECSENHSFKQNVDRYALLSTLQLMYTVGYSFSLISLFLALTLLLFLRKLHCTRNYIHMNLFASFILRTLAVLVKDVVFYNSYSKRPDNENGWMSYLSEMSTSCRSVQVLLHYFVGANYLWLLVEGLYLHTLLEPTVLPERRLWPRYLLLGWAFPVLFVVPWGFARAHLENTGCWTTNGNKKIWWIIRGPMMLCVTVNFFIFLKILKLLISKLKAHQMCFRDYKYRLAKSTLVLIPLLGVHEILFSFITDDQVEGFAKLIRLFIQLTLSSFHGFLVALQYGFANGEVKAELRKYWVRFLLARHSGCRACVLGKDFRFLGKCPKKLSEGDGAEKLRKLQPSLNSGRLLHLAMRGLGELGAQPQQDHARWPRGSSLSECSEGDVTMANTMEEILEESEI
ASSAY INFO: cell-based or functional assay
Numbered stars: 1 amine (or outer) side, 2 acyl side, 3 side chain; on linkers, the order of the positions; unused ones are H or OH. Side chains are listed from the residue outwards. Ends that are not written are not given here. * marks the point of attachment. γGlu = O=C(O)[C@H](CCC(=O)[*:2])N[*:1]; Palmitoyl = CCCCCCCCCCCCCCCC(=O)*
Please respond with reported GLP-2R, EC50 for every item in the list.
Value expressed in nM; do not type the unit.

Which value of GLP-2R, EC50 has been reported for HGDGSFTSELSTYLDAK([γGlu-Palmitoyl])AARDFIAWLIQTKITD [SEQ ID NO 25] in the records? 1.93

Item HGDGSFTSELSTYK([γGlu-Palmitoyl])DALAARDFIAWLIQTKITD [SEQ ID NO 23] has what recorded GLP-2R, EC50? 1.06

Recorded GLP-2R, EC50 of HGDGSFTSELSTYLDK([γGlu-Palmitoyl])LAARDFIAWLIQTKITD [SEQ ID NO 24] , please. 5.6

Data request, read-out GLP-2R, EC50, for HGDGSFTSELSK([γGlu-Palmitoyl])YLDALAARDFIAWLIQTKITD [SEQ ID NO 22] 6.61

Sample HGDGSFTSELK([γGlu-Palmitoyl])TYLDALAARDFIAWLIQTKITD [SEQ ID NO 21] — what was its GLP-2R, EC50? 4.25
